This listing pairs molecules with measured growth inhibition.
- experiment: NCI Yeast Anticancer Drug Screen. Data for the cln2 rad14 strain (AID 165);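 also: 0% = growth equal to vehicle treated cultures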
- conditions used: S. cerevisiae cln2 rad14 strain, at 5.0 µM (retest, dose inferred, filed as 0.5), active compounds read high
This is part of a sample that, as a whole, favours compounds with a hit. Of some 79,000 tested, about 15% had one in any assay.
measurement kind: growth inhibition (%)

INSERT INTO assay_data (molecule, units_symbol, experimental_result) VALUES
  ('CCCCCCCCCCCCS', '%', -2),
  ('CC1(C)CCN(CCOC(=O)C(c2ccccc2)C2C=CCCC2)C1 (configuration not stated)', '%', 3),
  ('CCCCCCCCCC[N+](C)(C)CCC[N+](C)(C)CCCCCCCCCC', '%', 32),
  ('CCOC(=O)N1C2C=CC(=O)C(C=C2)N1C(=O)OCC (configuration not stated)', '%', 7),
  ('Nc1ccc(N=Nc2ccccc2)c2ccccc12', '%', 0),
  ('c1ccc2c(c1)Nc1ccc3ccccc3c1S2', '%', 4),
  ('COc1ccc(-c2cn(-c3ccccc3)c3ncnc(N)c23)cc1', '%', 1);
